Please provide measured GI50 for the entries that follow.
System: SF-268
Protocol Notes: NCI tumour cell line growth inhibition, 48 h
Activity calls are given as the source filed them. No stated cut-off is given here; in the data, active = GI50 up to about 1.1 µM and inactive = higher. Where a SMILES comes first, the peptide text is derived from it. [ ]: non-standard residue; d: D form. The star is where a group is joined. Phe(4-NO2) = N[CH](Cc1ccc([N+](=O)[O-])cc1)C(=O)O; Boc = CC(C)(C)OC(=O)*; OtBu = CC(C)(C)O*

Need GI50, item CCOC(=O)c1cc2cc(CSc3ccccc3)ccc2oc1=O
> 100 µM (inactive)

// next record COC(C)(C)OCCN1CCN(CCN2C3=C(C=C(C(C)=O)C3)Sc3ccccc32)CC1
19.6 µM (inactive)

// next record CC(=O)NC(CCC(=O)OC(C)(C)C)C(=O)NC(CCC(=O)OC(C)(C)C)C(=O)NC(Cc1ccc([N+](=O)[O-])cc1)C(=O)NC(CCCCNC(=O)OC(C)(C)C)C(=O)NC(CCCCNC(=O)OC(C)(C)C)C(=O)NCC(=O)O (configuration not stated) (Ac-E(OtBu)E(OtBu)[Phe(4-NO2)]K(Boc)K(Boc)G-OH; configuration not given here)
> 100 µM (inactive)

// next record COc1c(Cl)ccc(Cl)c1-c1nnc(-c2c(Cl)c(Cl)c(Cl)c(Cl)c2-c2nc3cc(C(=O)c4ccccc4)ccc3[nH]2)o1
57.1 µM (inactive)

// next record Cc1ccc(SSCCCCS(=O)O)cc1
10 µM (inactive)

// next record CC(C)c1cccc(C(C)C)c1NC(=O)C(=O)C(C(=O)c1ccc2ccccc2c1)C1OC(=O)c2ccccc21 (configuration not stated)
> 100 µM (inactive)

// next record CC(=O)c1cccc(Nc2nc3ccccc3c3occc23)c1
22.2 µM (inactive)

// next record CN(C)CCS/C(=N\c1ccccc1)N1CCCCC1
18.4 µM (inactive)

// next record O=C1CC2CC3OC3[C@H]3c4cc5c(cc4C(=O)N1C23)OCO5 (some centres not stated)
> 100 µM (inactive)

// next record C=CC(O)C#Cc1cnc(OC)nc1OC (configuration not stated)
> 100 µM (inactive)

// next record NC(=S)N/N=C(\Cc1nc2ccc(Cl)cc2nc1O)C(=O)Nc1ccc(Cl)cc1
> 100 µM (inactive)

// next record Cc1cccc2cc3cccc(C(=O)NCCN(C)C)c3nc12
0.296 µM (active)

// next record CC(=O)OCC(=O)[C@@]12OC(C)(C)O[C@@H]1C[C@H]1[C@@H]3CC(C=O)=C4C=C(OCCCl)CC[C@]4(C)[C@@]3(F)[C@@H](O)C[C@@]12C
34.9 µM (inactive)

// next record CC(=O)Nc1ccc(/C=c2\sc3nnc(/C=C/c4ccccc4)n3c2=O)cc1
> 50 µM (inactive)

// next record CC1(C)CC(=O)C(CC2C(=O)c3ccccc3C2=O)C(=O)C1C(=O)C(=O)Nc1cccc2ccc(O)cc12 (configuration not stated)
> 100 µM (inactive)

// next record Nc1nc(O)c2nc(N)n(Cc3ccccc3)c2n1
> 100 µM (inactive)

// next record O[C@H]1[C@@H]2OC[C@@H](O)[C@H](OCc3ccccc3)[C@@](COCc3ccccc3)(O2)[C@@H]1OCc1ccccc1
22.2 µM (inactive)

---

Please provide measured GI50 for the entries that follow.
Tested on: SF-539
Protocol Notes: NCI tumour cell line growth inhibition, 48 h
The source made the active and inactive calls. Cut-off read from the data, not from the text of the source: active = GI50 up to about 1.1 µM and inactive = higher. Where a SMILES comes first, the peptide text is derived from it. [ ]: non-standard residue; d: D form. The star is where a group is joined. Phe(4-NO2) = N[CH](Cc1ccc([N+](=O)[O-])cc1)C(=O)O; Boc = CC(C)(C)OC(=O)*; OtBu = CC(C)(C)O*

Need GI50, item Clc1cccc(C2SCc3nc4ccccc4n32)c1Cl (centres undefined)
17.2 µM (inactive)

// next record O=C(N/N=C/C=C/c1ccc([N+](=O)[O-])o1)c1ccc(C(=O)N/N=C/C=C/c2ccc([N+](=O)[O-])o2)cc1
6.18 µM (inactive)

// next record CC(=O)/C(=C/n1ccc(=O)[nH]c1=S)C(=O)Nc1ccccc1C
> 100 µM (inactive)

// next record C=CCC1=CC2(OC)C(=O)C(OC)(OC)C1C1C(OC)(OC)C(=O)C(OC)=CC12CC=C (centres undefined)
> 100 µM (inactive)

// next record COc1ccc(/C=N\NC(=O)Nc2cccc3ccccc23)cc1
14 µM (inactive)

// next record CCOC(=O)C(=O)Nc1c(CC)cccc1C(C)CC (centres undefined)
> 100 µM (inactive)

// next record CCCCN(CCCC)C1(c2cc3ccccc3s2)CCCCC1.[O-][Cl+3]([O-])([O-])O
19.1 µM (inactive)

// next record COC1OC(CBr)C(OC(=O)c2ccccc2)C(OS(=O)(=O)c2ccc(C)cc2)C1Br (centres undefined)
> 100 µM (inactive)

// next record O=C1Nc2ccccc2/C1=C\c1c(Cl)n(-c2ccccc2)c2ccccc12
1.87 µM (inactive)

// next record O=C1c2cc3c(cc2CC12Cc1cc4c(cc1C2=O)CCCC4)CCCC3
52.2 µM (inactive)

// next record Nc1nc2c3nc(Nc4ccccc4)sc3nc(=O)n2c2sc(Nc3ccccc3)nc12
> 100 µM (inactive)

// next record Cc1cn(CCOCCOC(=O)NC(CCCNC(N)=O)C(=O)O)c(=O)[nH]c1=O (centres undefined)
> 100 µM (inactive)

// next record Cc1ccc(-c2cc(-c3ccccc3)c(C#N)c(=O)[nH]2)cc1
> 100 µM (inactive)

// next record Clc1c(Cl)c(Cl)c2c(nnn2C2CCCO2)c1Cl (centres undefined)
30.7 µM (inactive)

// next record CCOP(=O)(OCC)C(C)(CC)NC (centres undefined)
> 100 µM (inactive)

// next record CN(C)CCCN1C(=S)N(CCCN(C)C)c2c3cc(O)ccc3nc3c([N+](=O)[O-])ccc1c23
1.29 µM (inactive)

// next record C1CSCCCSCCSCCCSC1
> 100 µM (inactive)

// next record CC(=O)NC(CCC(=O)OC(C)(C)C)C(=O)NC(CCC(=O)OC(C)(C)C)C(=O)NC(Cc1ccc([N+](=O)[O-])cc1)C(=O)NC(CCCCNC(=O)OC(C)(C)C)C(=O)NC(CCCCNC(=O)OC(C)(C)C)C(=O)NCC(=O)O (centres undefined) (Ac-E(OtBu)E(OtBu)[Phe(4-NO2)]K(Boc)K(Boc)G-OH; configuration not given here)
> 100 µM (inactive)

// next record COc1cccc(C[C@H]2COC(=O)[C@]2(O)Cc2cccc(OC)c2)c1
> 100 µM (inactive)
